Measured pest or weed control at 200 ppm accompanies every entry in the list below.
system: Puccinia recondita f sp. tritici; test: Test B: wheat leaf rust, preventive spray on wheat seedlings, visual disease rating; assay type: in vivo; settings: 192 h, 200 ppm, 100 = 100% disease control
Give the value, in units of %, as a plain number.

In the examples that follow, each entry is paired with its recorded pest or weed control at 200 ppm.
molecule | pest or weed control at 200 ppm, %
COC(=O)NCc1cc(-n2ccc(-c3ccc(OC)cc3OC)n2)ccc1C [Compound 23] | 100
COC(=O)NCc1cc(-c2ncn(-c3ccc(F)cc3F)n2)ccc1C [Compound 117] | 100

Okay, now this molecule:
The reported pest or weed control at 200 ppm of the molecule COC(=O)NCc1cc(-c2ccn(-c3ccc(Cl)cc3OC)n2)ccc1C [Compound 28] was 100

All values here come from patent US20150266850A1.
